Experiment: Components of the Cytosolic LPS Sensing Pathway: Gene Identification via Genome-wide siRNA Screen;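 also: robust z of the log signal after scaling to non-targeting control siRNA wells of the plate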
Details: RAW264.7 macrophages, IL-1a HTRF, actives lie on both sides, screened at 100 nM (by protocol), cells primed 5 h with Pam3CSK4 first
Hit rate of the full screen: of about 53,000 sequences, about 3,700 (7%) were called active.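 The calls were made as follows: active = gene knockdowns whose robust z-score for IL-1 alpha signal is at least 2 or at most -2, so actives lie on both sides; inactive = the rest.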 The full list was thinned out, with actives kept by preference.
Possible outcomes: active, inactive

sequence_entry="GGUAAAAGUGGGUAGGAAATT against Ptprh" class_name=inactive
sequence_entry="GGAGUUUCAAGAAAAAAGGTT against Map3k21" class_name=inactive
sequence_entry="GGUGGAGACACUGAAGGUUTT against Akap1" class_name=inactive
sequence_entry="GGAGACUUGCUAAAUGCCCTT against Fkbp7" class_name=inactive
sequence_entry="GGAGUGUGCCCUGAAAGAUTT against Psrc1" class_name=inactive
sequence_entry="GGCGAUAUUCUUAAUUAUCTT against Mfsd6" class_name=inactive
sequence_entry="GCUGUCUGAUUCUGAGGUGTT against Slc6a1" class_name=active
sequence_entry="GGCCGUUCAUUUCCUCAUCTT against Galr2" class_name=inactive
sequence_entry="GGCUAGUUUUCUCUUAAAUTT against Usp1" class_name=active
sequence_entry="GAAAAGUGCACCAUCAGCCTT against Ly6g5b" class_name=active
sequence_entry="GGGAGAAACCUGUGCAAAUTT against Serpinb6c" class_name=inactive
sequence_entry="CCCAUGGAAUGAAAACAACTT against Gm4894" class_name=active
sequence_entry="GGAGUGUAUGCAGAAGUUUTT against Dnajc24" class_name=inactive
sequence_entry="GCAGUCAAUUCCCUUUUACTT against Ankmy1" class_name=inactive
sequence_entry="GGCCCACGUCCUGUACAUUTT against Tdrd1" class_name=active
sequence_entry="GGCGAUCUUUGGAAUUAGATT against Ing3" class_name=inactive
sequence_entry="CCAAAGGGAAGAGUUAUGCTT against Tmem126b" class_name=active
sequence_entry="CCGUCUAUUAGUGAAGAUGTT against Pex1" class_name=inactive

---

Assay: Components of the Cytosolic LPS Sensing Pathway: Gene Identification via Genome-wide siRNA Screen;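 also: robust z of the log signal after scaling to non-targeting control siRNA wells of the plate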
Conditions: RAW264.7 macrophages, IL-1a HTRF, actives lie on both sides, screened at 100 nM (by protocol), cells primed 5 h with Pam3CSK4 first
The campaign covered roughly 53,000 sequences. About 3,700 (7%) were called active. The entries come from a sample that favours actives as a whole.
Quantity kind: z-score

sequence_entry="GCUUCUGAUUAACCUCCAGTT against Olfr1390" val=-1.49
sequence_entry="GGUGACAGGUCAGAAAGUCTT against Tor1aip2" val=-2.78
sequence_entry="GCCUUUCAACUCACCAGCCTT against Zfp574" val=0.617
sequence_entry="GGAGCACAGUUUUGGUGCUTT against Olfr576" val=1.82
sequence_entry="GCCUCAGUUUGAAAUUGUUTT against Tbrg1" val=-0.695
sequence_entry="GGGAUCGUCCAGAUCUAAUTT against Apobec3" val=-0.982
sequence_entry="GGAGGCACAGAGAUUGAAGTT against Sry" val=0.247
sequence_entry="CCGAAUCUCUCACGUGCCATT against Rtn4r" val=-0.474
sequence_entry="GGUUCUGCUGGACAACUUUTT against Cyp46a1" val=-0.377
sequence_entry="GCAUUUGGAAUUUACCAUGTT against Wdr47" val=1.13

---

Assay: Components of the Cytosolic LPS Sensing Pathway: Gene Identification via Genome-wide siRNA Screen;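 also: robust z of the log signal after scaling to non-targeting control siRNA wells of the plate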
Details: RAW264.7 macrophages, IL-1a HTRF, actives lie on both sides, screened at 100 nM (by protocol), cells primed 5 h with Pam3CSK4 first
Among all 53,000 sequences or so, about 3,700 (7%) were called active.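 Rule for the calls: active = gene knockdowns whose robust z-score for IL-1 alpha signal is at least 2 or at most -2, so actives lie on both sides; inactive = the rest.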 Many of the other results were omitted from the sample, so actives are more common in it than they were.
Outcome codes: active, inactive

sequence_entry="CCAAAGCUAGGUCAUUUUATT against Slc31a2" class_name=inactive
sequence_entry="CCCGGUAUUAAAUUUAAUGTT against Aox4" class_name=inactive
sequence_entry="CCUUGCACGACAUUUUACUTT against Idnk" class_name=inactive
sequence_entry="GGGUGCCUACUUGAUCCUUTT against Hgh1" class_name=inactive
sequence_entry="GGAGGAUGGAGUCAUAUAUTT against Gm773" class_name=inactive
sequence_entry="GACCAACCCUCACUAAGCUTT against Tcstv3" class_name=inactive
sequence_entry="GGGACAGAUACAGUUCAUGTT against Zan" class_name=inactive
sequence_entry="GAUCCGUUGGGAAAAGAACTT against Ssbp4" class_name=inactive
sequence_entry="GGCAAACAUUUCAAAUACATT against Tgm4" class_name=active
sequence_entry="GGCCUUCACCAAAAGCAUCTT against Ncf2" class_name=inactive
sequence_entry="GCAUAUGAUGGUCCUUACCTT against Cox6b1" class_name=inactive
sequence_entry="AUUACAAGGUUUGUGGAUATT against Gsdmc3" class_name=inactive
sequence_entry="GGUUUUUGUUAAGGUCAAUTT against Abca16" class_name=inactive
sequence_entry="GGAAACUUCUUCCCGGUUGTT against Gsdmc" class_name=inactive
sequence_entry="CCUAAACCAGUCUUUUCUCTT against Cnep1r1" class_name=inactive
sequence_entry="GGUUUUUGAGUUUCUGAUUTT against Vps8" class_name=inactive
sequence_entry="GGACUGGUUCUUCAGAUCCTT against Depp1" class_name=active
sequence_entry="GGAACCAAUCUGUCUCUCCTT against Cbfb" class_name=active
sequence_entry="GGCCAUCAGAGUCAACUGUTT against Immt" class_name=inactive
sequence_entry="GGCCAUUUCUAUGAAAUUATT against Olfr1016" class_name=active
sequence_entry="GGAGAUUGUUAUGCAAAAATT against Dnah5" class_name=inactive
sequence_entry="CCCACAGAAUCACUCCAAGTT against Utp14a" class_name=inactive
sequence_entry="GGUUGUUGGAAAAAUAGAUTT against Tmem175" class_name=inactive
sequence_entry="GGAAAUCCAGAAGCGUGUGTT against Gtpbp3" class_name=inactive
sequence_entry="CGCAAAGUGGACAAACGUATT against Kcne3" class_name=inactive
sequence_entry="GGACGGUGACAAGAACAACTT against Tnnc1" class_name=inactive
sequence_entry="CCUAGGGACAUUGGUUAUUTT against Sema4f" class_name=active
sequence_entry="GGGUAACAGAUGAAGGGUCTT against Synpo2l" class_name=active
sequence_entry="GGACUAGCGGACAUGGAUCTT against Ndc80" class_name=inactive
sequence_entry="CGGAUACAAUUUCUGACCGTT against Zdhhc23" class_name=inactive
sequence_entry="GGAUGCUUGUGGACCUGUGTT against Olfr1123" class_name=inactive
sequence_entry="GCCUGAUAUCAACAUAGGATT against Pth2r" class_name=inactive
sequence_entry="GGGCUGUGAGCUCUGUUCATT against Rspo1" class_name=inactive
sequence_entry="GGAAUCAGAUACAAAGGAGTT against Sil1" class_name=inactive
sequence_entry="GCUUGUGCUGAAUUACACCTT against Vps35" class_name=active

---

Assay: Components of the Cytosolic LPS Sensing Pathway: Gene Identification via Genome-wide siRNA Screen;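 also: robust z of the log signal after scaling to non-targeting control siRNA wells of the plate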
Details: RAW264.7 macrophages, IL-1a HTRF, actives lie on both sides, screened at 100 nM (by protocol), cells primed 5 h with Pam3CSK4 first
Hit rate of the full screen: of about 53,000 sequences, about 3,700 (7%) were called active. Only a selection was taken, and actives are over-represented in it overall.
Think of -0.3 as a floor: if z-score stands on it or above, it is criterion met; beneath it, criterion not met.

sequence_entry="GCAUGCGCCCUAAAGGAAATT against Zmynd15" class_name="criterion met"
sequence_entry="GGCCUGGAUGGAAAUUUGCTT against Fabp4" class_name="criterion not met"
sequence_entry="GGUAAUAAACGGUAAAUUGTT against B430306N03Rik" class_name="criterion not met"
sequence_entry="GCCUGUACAUGACGGAAAGTT against Bag4" class_name="criterion met"
sequence_entry="CCACCUCCUCUCGAUACAATT against Zfp36" class_name="criterion met"
sequence_entry="CGCAGAUGAUUAAGUUGGUTT against Olfr1000" class_name="criterion met"
sequence_entry="GGAGAGUAUGGACAGUAUUTT against Pgc" class_name="criterion met"
sequence_entry="GCUUUGAGAACCUUGGUAATT against Rab9b" class_name="criterion not met"
sequence_entry="GCUGGUGGCAAUCAGAAAATT against Nppc" class_name="criterion met"
sequence_entry="CCCAUAUCCUAGCUCUCUUTT against Olfr1230" class_name="criterion not met"
sequence_entry="GACCAGUGACAAGACCAUCTT against Unc45b" class_name="criterion met"
sequence_entry="GGAGCAGUUACAGGAAAUCTT against Cdr2" class_name="criterion not met"
sequence_entry="GGAUAAAGAAGGACUCAAATT against Tpbpb" class_name="criterion not met"
sequence_entry="GGAAGACUUGUUCAACUGGTT against Grwd1" class_name="criterion not met"
sequence_entry="CGCUCCAUUGCUCAGUAUUTT against Vtn" class_name="criterion met"
sequence_entry="GCUAUUGCCUUAGAUCCAUTT against Lrp6" class_name="criterion met"
sequence_entry="GCCCUCAUACCUACUAUGUTT against 4631405J19Rik" class_name="criterion met"
sequence_entry="GGUUCAAGGGCCAGAUCCUTT against Rpl32" class_name="criterion met"
sequence_entry="GCCAAAUGUGCGUCAUCUATT against Zdhhc25" class_name="criterion not met"
sequence_entry="CCUUCUUGUGGGAGUGAAATT against Chodl" class_name="criterion met"
sequence_entry="GCCACGAAAAGAAGAGAAUTT against Vpreb2" class_name="criterion met"
sequence_entry="GGGCCUAUCUGAAAGUUUATT against Nrm" class_name="criterion met"
sequence_entry="CGAGAAUUCCUUGCUCUAATT against Mgat4a" class_name="criterion met"
sequence_entry="GGAUUUGAGGUUUUAGGAATT against Qtrt2" class_name="criterion met"
sequence_entry="GGAAUUUCAGGAGAUACUGTT against C1qtnf12" class_name="criterion not met"
sequence_entry="GGCUGAUCCAUUUUCACAATT against Adam6a" class_name="criterion not met"
sequence_entry="CCUUAUUGAGACGAAUACGTT against Fastkd1" class_name="criterion not met"
sequence_entry="GGAGGAAAAGGCUUUUCGATT against Ccdc70" class_name="criterion met"
sequence_entry="GCCUGAUAGUGCAGAAACATT against Rabl2" class_name="criterion met"
sequence_entry="GGGAAGAAGAUGGAAUUUATT against Smoc1" class_name="criterion met"
sequence_entry="GGCUGUUACAAGAACGUAGTT against 5031434C07Rik" class_name="criterion not met"
sequence_entry="GGAACAAAGAUUGAGAGAATT against Sltm" class_name="criterion not met"
sequence_entry="CGCAUUUCGAAUAAAGACATT against Mettl22" class_name="criterion not met"
sequence_entry="GGAGAAAUGAAGAUUGUGGTT against Tmem218" class_name="criterion not met"
sequence_entry="CCUAAAGAAAGGUUAAAGATT against Sfr1" class_name="criterion not met"
sequence_entry="GCCACACUUAAGUCAGACCTT against Tprn" class_name="criterion met"
sequence_entry="GCCUAUCAAUGUGUAUCUUTT against Tcf21" class_name="criterion not met"
sequence_entry="GCUCAGCUAGCAGAAAUUCTT against Nlrp2" class_name="criterion not met"
sequence_entry="CCUGAACAUGAGUUAAAAGTT against Lmo4" class_name="criterion met"
sequence_entry="ACAAGAUUGGGAUCAUCUATT against Rpl23a" class_name="criterion met"
sequence_entry="GGAUUAGGAAAGAGAGAACTT against 4930519G04Rik" class_name="criterion not met"
sequence_entry="GGACAGGAAGAAAAGAAACTT against Vmn2r-ps11" class_name="criterion not met"
sequence_entry="GCUAACCAUGUGACAAUAATT against Timm8a1" class_name="criterion not met"
